Data provenance is ChEMBL document CHEMBL1124366.

Reported MIC values for a set of compounds
# Test system: Enterococcus faecalis
# protocol-description: In vitro minimum inhibitory concentration against Streptococcus faecalis ATCC 7080
# Type: functional
Express it in µg/mL; write the number only.

structure-smiles: CNCCCN(C)C(=O)[C@H]1NC(=O)[C@H]2NC(=O)[C@H](NC(=O)[C@@H]3NC(=O)[C@H]4NC(=O)[C@@H](Cc5ccc(c(Cl)c5)Oc5cc3cc(c5O[C@@H]3O[C@@H](CO)[C@@H](O)[C@H](O)[C@@H]3NC(=O)CCCCCCC(C)C)Oc3ccc(cc3Cl)[C@H]2O[C@@H]2O[C@@H](CO)[C@@H](O)[C@H](O)[C@@H]2NC(C)=O)NC(=O)[C@H](N)c2ccc(O)c(c2)Oc2cc(O)cc4c2)c2ccc(O)c(c2)-c2c(O[C@H]3O[C@H](CO)[C@@H](O)[C@@H](O)[C@@H]3O)cc(O)cc21
MIC (µg/mL): 0.12

// next item, MIC requested
Give the reported value of MIC for this record: `CC(=O)N[C@@H]1[C@H](O[C@@H]2c3ccc(c(Cl)c3)Oc3cc4cc(c3O[C@@H]3O[C@@H](CO)[C@@H](O)[C@H](O)[C@@H]3NC(=O)CCCCCCC(C)C)Oc3ccc(cc3Cl)C[C@H]3NC(=O)[C@H](N)c5ccc(O)c(c5)Oc5cc(O)cc(c5)[C@H](NC3=O)C(=O)N[C@H]4C(=O)N[C@H]3C(=O)N[C@@H]2C(=O)N[C@H](C(=O)NCCCCCCCN(C)C)c2cc(O)cc(O[C@H]4O[C@H](CO)[C@@H](O)[C@@H](O)[C@@H]4O)c2-c2cc3ccc2O)O[C@@H](CO)[C@@H](O)[C@@H]1O` 0.12
